System: SK-OV-3
Assay: Cytotoxicity was determined in vitro in SK-OV-3 cells (ovarian) of human tumor cell lines by using MTT assay
Assay type: functional, cell-based
Please go through the items and note down their pIC50.
Quick note: pIC50 means taking -log10 of the concentration in moles per liter.

q: For the compound "CC[C@@]1(O)C(=O)OCc2c1cc1n(c2=O)Cc2cc3c(CN(C)C)c(O)ccc3nc2-1" , what pIC50 is on record?
a: 7.36

q: For the compound "CC[C@@]1(O)C(=O)OCc2c1cc1n(c2=O)Cc2cc3ccccc3nc2-1" , what pIC50 is on record?
a: 7.43

q: For the compound "CC[C@@]1(O)C(=O)OCc2c1cc1n(c2=O)Cc2c-1nc1cc3c(cc1c2CN1CCN(C)CC1)OCCO3.O=C(O)C(F)(F)F" , what pIC50 is on record?
a: 7.80

q: For the compound "CC[C@@]1(O)C(=O)OCc2c1cc1n(c2=O)Cc2c-1nc1cc3c(cc1c2CCl)OCCO3" , what pIC50 is on record?
a: 8.40

q: For the compound "CC[C@@]1(O)C(=O)OCc2c1cc1n(c2=O)Cc2c-1nc1cc3c(cc1c2CN1CCN(C)CC1)OCO3.O=C(O)C(F)(F)F" , what pIC50 is on record?
a: 8.40

q: For the compound "COc1cccc2c1C(=O)c1c(O)c3c(c(O)c1C2=O)C[C@@](O)(C(=O)CO)C[C@@H]3O[C@H]1C[C@H](N)[C@H](O)[C@H](C)O1" , what pIC50 is on record?
a: 7.44
